target: human PD-L1 (human) (UniProt Q9NZQ7); assay: flow cytometry, CHO cells expressing huPD-L1; MFI ratio to WT CD80 ECD-Fc (R&D)
Sequence (Q9NZQ7 19-290): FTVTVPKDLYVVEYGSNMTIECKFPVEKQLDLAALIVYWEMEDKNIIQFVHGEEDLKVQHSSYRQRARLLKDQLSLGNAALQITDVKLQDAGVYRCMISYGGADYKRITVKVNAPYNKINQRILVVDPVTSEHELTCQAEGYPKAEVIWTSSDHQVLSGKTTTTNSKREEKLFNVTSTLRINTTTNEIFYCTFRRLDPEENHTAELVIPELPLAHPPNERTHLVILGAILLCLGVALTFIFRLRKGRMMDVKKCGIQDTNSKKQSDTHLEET
recorded.endpoint: Fold change to WT (fold)
// note: answer is a bare numeric in fold

q: Fold change to WT for variant CD80 IgV-Fc Y31S/E35D/M47L/T79L/E88G (Fc fusion) VIHVTKEVKEVATLSCGHNVSVEELAQTRISWQKDKKMVLTMMSGDLNIWPEYKNRTIFDITNNLSIVILALRPSDEGLYECVVLKYGKDAFKREHLAEVTLSVKAD ?
a: 4.9

q: // repeat for variant CD80 IgV-Fc A26E/Q33R/E35D/M47L/L85Q/K86E (Fc fusion) VIHVTKEVKEVATLSCGHNVSVEELEQTRIYWRKDKKMVLTMMSGDLNIWPEYKNRTIFDITNNLSIVILALRPSDEGTYECVVQEYEKDAFKREHLAEVTLSVKAD and report
a: 9.56

q: Check variant CD80 IgV-Fc Q33K/E35D/D46V/L85Q (Fc fusion) VIHVTKEVKEVATLSCGHNVSVEELAQTRIYWKKDKKMVLTMMSGVMNIWPEYKNRTIFDITNNLSIVILALRPSDEGTYECVVQKYEKDAFKREHLAEVTLSVKAD too.
a: 3.36

These data points were gathered from patent US20220177587A1.
